FYI, the data here is from patent US8778946B2.

Biological target: UniProt:Q13255
Sequence (Q13255 19-1194): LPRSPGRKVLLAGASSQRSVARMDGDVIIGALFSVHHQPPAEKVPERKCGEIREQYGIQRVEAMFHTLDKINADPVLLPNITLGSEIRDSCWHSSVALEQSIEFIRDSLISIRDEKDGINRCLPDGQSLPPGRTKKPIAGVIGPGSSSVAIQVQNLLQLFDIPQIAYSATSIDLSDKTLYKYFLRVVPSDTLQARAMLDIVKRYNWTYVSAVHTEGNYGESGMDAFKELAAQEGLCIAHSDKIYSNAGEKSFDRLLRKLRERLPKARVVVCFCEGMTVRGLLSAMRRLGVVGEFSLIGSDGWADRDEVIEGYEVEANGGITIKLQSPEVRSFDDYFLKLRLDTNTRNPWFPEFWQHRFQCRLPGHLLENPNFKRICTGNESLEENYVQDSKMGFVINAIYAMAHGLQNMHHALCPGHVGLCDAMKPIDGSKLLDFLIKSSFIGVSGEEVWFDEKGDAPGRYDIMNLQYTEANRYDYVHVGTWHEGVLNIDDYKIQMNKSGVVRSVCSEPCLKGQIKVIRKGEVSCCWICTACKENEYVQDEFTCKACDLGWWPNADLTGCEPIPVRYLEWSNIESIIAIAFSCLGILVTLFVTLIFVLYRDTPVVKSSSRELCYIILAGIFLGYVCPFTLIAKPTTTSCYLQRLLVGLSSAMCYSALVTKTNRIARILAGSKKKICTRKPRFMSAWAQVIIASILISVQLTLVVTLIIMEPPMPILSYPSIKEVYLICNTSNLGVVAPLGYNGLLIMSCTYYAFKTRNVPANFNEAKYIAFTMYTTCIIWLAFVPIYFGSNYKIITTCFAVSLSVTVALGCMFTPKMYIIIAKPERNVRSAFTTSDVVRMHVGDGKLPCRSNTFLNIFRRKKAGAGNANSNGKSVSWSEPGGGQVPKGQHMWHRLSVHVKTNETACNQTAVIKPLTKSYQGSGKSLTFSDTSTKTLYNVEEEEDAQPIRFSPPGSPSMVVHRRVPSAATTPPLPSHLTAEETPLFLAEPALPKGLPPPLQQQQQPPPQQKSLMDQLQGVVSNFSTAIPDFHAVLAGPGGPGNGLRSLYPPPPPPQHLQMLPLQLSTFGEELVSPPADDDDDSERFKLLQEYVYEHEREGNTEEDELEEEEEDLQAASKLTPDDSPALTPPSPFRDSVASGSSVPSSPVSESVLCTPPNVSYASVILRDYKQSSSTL
Test: Human mGluR1 in vitro functional assay (FLIPR calcium, antagonism of glutamate EC90 response)
Conditions: AV-12 cells expressing recombinant human mGlu1α, relative IC50
pIC50: −log10 of the molar value.

[
  {
    "Compound": "CCOC(=O)N1CCN(c2cn(C)c3nc(OCc4ccccn4)ccc23)C(=O)C1 [Example 1]",
    "pIC50": "< 4.90"
  }
]

----------
Molecular target: human mGluR5 (Homo sapiens, UniProt P41594)
Sequence (P41594 21-1180 isoform P41594-2 limits assumed): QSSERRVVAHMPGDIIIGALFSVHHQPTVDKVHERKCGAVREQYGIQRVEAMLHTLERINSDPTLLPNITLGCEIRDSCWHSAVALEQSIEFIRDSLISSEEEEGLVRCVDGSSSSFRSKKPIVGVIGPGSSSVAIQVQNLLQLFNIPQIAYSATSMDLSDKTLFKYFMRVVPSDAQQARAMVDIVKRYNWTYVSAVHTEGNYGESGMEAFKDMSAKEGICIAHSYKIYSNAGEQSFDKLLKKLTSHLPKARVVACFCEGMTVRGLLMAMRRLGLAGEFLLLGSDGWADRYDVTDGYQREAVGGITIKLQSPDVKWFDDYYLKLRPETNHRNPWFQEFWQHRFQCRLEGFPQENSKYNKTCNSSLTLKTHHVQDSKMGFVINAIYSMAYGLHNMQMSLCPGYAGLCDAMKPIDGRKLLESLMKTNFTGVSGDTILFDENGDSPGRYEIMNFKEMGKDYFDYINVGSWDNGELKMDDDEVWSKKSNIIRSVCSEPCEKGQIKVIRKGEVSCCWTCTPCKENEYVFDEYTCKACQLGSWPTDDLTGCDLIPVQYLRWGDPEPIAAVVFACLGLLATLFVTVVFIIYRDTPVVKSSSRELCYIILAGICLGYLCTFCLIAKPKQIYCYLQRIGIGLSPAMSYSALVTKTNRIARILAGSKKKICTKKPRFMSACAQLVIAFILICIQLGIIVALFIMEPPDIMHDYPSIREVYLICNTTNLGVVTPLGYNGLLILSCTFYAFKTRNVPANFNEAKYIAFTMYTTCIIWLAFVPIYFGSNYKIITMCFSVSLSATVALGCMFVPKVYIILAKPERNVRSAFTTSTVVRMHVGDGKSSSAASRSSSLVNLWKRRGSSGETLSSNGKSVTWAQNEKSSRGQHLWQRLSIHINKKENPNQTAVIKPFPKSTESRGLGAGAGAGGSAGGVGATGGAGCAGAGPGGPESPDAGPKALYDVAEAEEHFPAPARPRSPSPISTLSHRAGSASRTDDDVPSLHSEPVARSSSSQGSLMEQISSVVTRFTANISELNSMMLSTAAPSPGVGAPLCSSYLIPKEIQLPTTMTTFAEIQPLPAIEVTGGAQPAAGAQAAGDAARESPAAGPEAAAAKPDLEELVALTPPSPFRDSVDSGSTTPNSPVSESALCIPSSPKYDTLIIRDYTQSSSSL
Assay: Human mGluR5 in vitro functional assay (FLIPR calcium, antagonism of glutamate EC90 response)
Details: AV-12 cells expressing recombinant human mGlu5a, relative IC50

[
  {
    "Compound": "CCOC(=O)N1CCN(c2cn(C)c3nc(OCc4ccccn4)ccc23)C(=O)C1 [Example 1]",
    "IC50 (nM)": 184
  }
]
